System: Mycobacterium tuberculosis
Assay: Antituberculosis activity against Mycobacterium tuberculosis H37Rv MTCC 300 at 6.25 ug/ml after 4 weeks by Lowenstein-Jensen medium method
Type: functional
Details: H37Rv MTCC 300, 672 h
Record t whenever inhibition at 6.25 µg/mL is at 70% or higher; record f when lower.

Would you please look over these solved cases?
molecule	class-assignment
Cc1ccc(-c2nn(-c3ccccc3)cc2C2C(C(=O)Nc3ccc(Br)cn3)=C(C(C)C)Nc3ncnn32)cc1 (stereo unspecified)	f
CC1=C(C(=O)Nc2ccc(C)cn2)C(c2cn(-c3ccccc3)nc2-c2ccccc2)n2ncnc2N1 (stereo unspecified)	f
CC(C)C1=C(C(=O)Nc2ccccn2)C(c2cn(-c3ccccc3)nc2-c2ccc(F)cc2)n2ncnc2N1 (stereo unspecified)	t
CC1=C(C(=O)Nc2ccc(Br)cn2)C(c2cn(-c3ccccc3)nc2-c2ccc(C)cc2)n2ncnc2N1 (stereo unspecified)	f
CC1=C(C(=O)Nc2ccc(C)cn2)C(c2cn(-c3ccccc3)nc2-c2ccc(C)cc2)n2ncnc2N1 (stereo unspecified)	f
Cc1ccc(-c2nn(-c3ccccc3)cc2C2C(C(=O)Nc3ccc(C)cn3)=C(C(C)C)Nc3ncnn32)cc1 (stereo unspecified)	f
CC(C)C1=C(C(=O)Nc2ccc(Br)cn2)C(c2cn(-c3ccccc3)nc2-c2ccccc2)n2ncnc2N1 (stereo unspecified)	f
CC1=C(C(=O)Nc2ccc(C)cn2)C(c2cn(-c3ccccc3)nc2-c2ccc(F)cc2)n2ncnc2N1 (stereo unspecified)	t

Prompt: Say whether CC1=C(C(=O)Nc2ccc(Br)cn2)C(c2cn(-c3ccccc3)nc2-c2ccc(Cl)cc2)n2ncnc2N1 (stereo unspecified) shows inhibition at 6.25 µg/mL of 70% or more.
Completion: t

Prompt: And then CO[C@H]1/C=C/O[C@@]2(C)Oc3c(C)c(O)c4c(O)c(c(/C=N/N5CCN(C)CC5)c(O)c4c3C2=O)NC(=O)/C(C)=C\C=C\[C@H](C)[C@H](O)[C@@H](C)[C@@H](O)[C@@H](C)[C@H](OC(C)=O)[C@@H]1C [RIFAMPIN] , what is it?
Completion: t

Prompt: And then CC(C)C1=C(C(=O)Nc2ccc(Br)cn2)C(c2cn(-c3ccccc3)nc2-c2ccc(Cl)cc2)n2ncnc2N1 (stereo unspecified) , what is it?
Completion: t

Prompt: And then CC(C)C1=C(C(=O)Nc2ccccn2)C(c2cn(-c3ccccc3)nc2-c2ccccc2)n2ncnc2N1 (stereo unspecified) , what is it?
Completion: f

Prompt: And then Cc1ccc(NC(=O)C2=C(C(C)C)Nc3ncnn3C2c2cn(-c3ccccc3)nc2-c2ccccc2)nc1 (stereo unspecified) , what is it?
Completion: f

Prompt: And then CC1=C(C(=O)Nc2ccccn2)C(c2cn(-c3ccccc3)nc2-c2ccc(F)cc2)n2ncnc2N1 (stereo unspecified) , what is it?
Completion: t

Prompt: And then CC(C)C1=C(C(=O)Nc2ccc(Br)cn2)C(c2cn(-c3ccccc3)nc2-c2ccc(F)cc2)n2ncnc2N1 (stereo unspecified) , what is it?
Completion: t

// provenance: ChEMBL document CHEMBL3734741
